# Lookup of reported normalized growth keyed by entry
experiment: chemical genetic growth profiling, strain panel (AID 1159580);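 further: tested at 20 µM; growth read once vehicle control cultures reached saturation at 30 °C; 1 = growth at the plate median or of vehicle wells; lower values mean less growth of the strain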; settings: S. cerevisiae deletion strains, growth OD, locus YDL101C, strain DUN1, hits give low values
About 2,000 (36%) of roughly 5,500 compounds were called active. Roughly 18% stayed inconclusive and do not appear here. This is one part of the list.
Measured Quantity: normalized growth

molecule="CC[N+]1(C)CCCC(OC(=O)C(O)(c2ccccc2)c2ccccc2)C1 (stereo not drawn)" measured_quantity="normalized growth" measured_number=1.01
molecule=N/C(=N/OS(=O)(=O)c1ccc(Cl)cc1)c1ccc(C(F)(F)F)cc1 measured_quantity="normalized growth" measured_number=0.958
molecule=Cc1cc2cc3c(C)cc(=O)oc3c(C)c2o1 measured_quantity="normalized growth" measured_number=0.933
molecule=CCC/C=C/C=C/[C@@H]1C[C@@H](O)[C@@H](O)C(=O)[C@H]1C=O measured_quantity="normalized growth" measured_number=0.994
molecule=Cc1cc(Br)c(OCC(=O)NN)c2c1CCC2 measured_quantity="normalized growth" measured_number=0.995
molecule=CC(=O)Oc1cc(-c2coc3cc(OC(C)=O)c(OC(C)=O)c(OC(C)=O)c3c2=O)cc(OC(C)=O)c1OC(C)=O measured_quantity="normalized growth" measured_number=0.438
molecule=CCOC(=O)c1c(SC)[nH]c2c(C(F)(F)F)cccc2c1=O measured_quantity="normalized growth" measured_number=0.99
molecule=Cc1cc(C(=O)O/N=C(/N)CSc2ncccc2C(F)(F)F)no1 measured_quantity="normalized growth" measured_number=1.01
molecule=CCCCCCCCCc1ccc(O)cc1 measured_quantity="normalized growth" measured_number=0.1
molecule="CC(N)Cc1ccc(O)cc1 (stereo not drawn)" measured_quantity="normalized growth" measured_number=1.02
molecule="N#CC1COc2ccccc2O1 (stereo not drawn)" measured_quantity="normalized growth" measured_number=1.01
molecule=COc1ccc(-c2cc(=O)c3c(OC(C)=O)cc(OC(C)=O)cc3o2)cc1 measured_quantity="normalized growth" measured_number=0.958
molecule=NCCc1cccc(O)c1 measured_quantity="normalized growth" measured_number=0.985
molecule=COc1c(O)cccc1O measured_quantity="normalized growth" measured_number=1.01
molecule=COc1cc2c3cc1Oc1cc(ccc1O)C[C@@H]1c4c(cc(OC)c(O)c4Oc4ccc(cc4)C[C@@H]3N(C)CC2)CC[N+]1(C)C measured_quantity="normalized growth" measured_number=1.02
molecule=CCCCC1C(=O)N(c2ccccc2)N(c2ccccc2)C1=O measured_quantity="normalized growth" measured_number=1.01
molecule=NCCc1ccc(O)c(O)c1 measured_quantity="normalized growth" measured_number=0.988
molecule=CCCCCCCCCCc1ccc(-c2ccccc2)cc1 measured_quantity="normalized growth" measured_number=0.99
molecule=CCCCCCc1ccc(O)cc1O measured_quantity="normalized growth" measured_number=0.95
molecule="COC(=O)C1=C(C)NC(C)=C(C(=O)OCCN(C)Cc2ccccc2)C1c1cccc([N+](=O)[O-])c1 (stereo not drawn)" measured_quantity="normalized growth" measured_number=0.979
molecule="CC(=O)O[C@@H]1CC2C(C)(C)C(=O)CC[C@]2(C)C2CC[C@@]3(C)[C@H](c4ccoc4)OC(=O)C4OC43[C@@]21C (stereo partly drawn)" measured_quantity="normalized growth" measured_number=1.01
molecule=CC1=C2C(=CO[C@H](C)[C@H]2C)C(=O)C(C(=O)O)=C1O measured_quantity="normalized growth" measured_number=0.989
molecule="CC(=O)OC1CC2C(C)(C)CCCC2(C)C2CCC3(C)C(c4ccoc4)OC(=O)C4OC43C12C (stereo not drawn)" measured_quantity="normalized growth" measured_number=1.02
molecule="CC(=O)O[C@@H]1CC2C(C)(C)[C@H](O)C[C@H](O)[C@]2(C)C2CC[C@@]3(C)[C@H](c4ccoc4)OC(=O)[C@H]4O[C@]43[C@@]21C (stereo partly drawn)" measured_quantity="normalized growth" measured_number=1
molecule=CC(=O)O.CC(=O)O.[Cd] measured_quantity="normalized growth" measured_number=0.177
molecule="CSc1ccc2c(c1)C(N1CCN(C)CC1)Cc1ccccc1S2 (stereo not drawn)" measured_quantity="normalized growth" measured_number=0.537
molecule=Cc1ccc(C(=O)O/N=C(/N)CSc2ncccc2C(F)(F)F)cc1 measured_quantity="normalized growth" measured_number=1
molecule=COC(=O)C1=C(C)NC(C)=C(C(=O)OC)C1c1ccccc1[N+](=O)[O-] measured_quantity="normalized growth" measured_number=1.01
molecule=Cc1nc(-c2ccc(C(F)(F)F)cn2)[nH]c(=O)c1Cl measured_quantity="normalized growth" measured_number=0.939
molecule=N/C(CSc1ccc(Cl)cc1)=N/OC(=O)c1ccc(C(F)(F)F)cc1 measured_quantity="normalized growth" measured_number=0.867
molecule=CC(C)(C)C(=O)N1CCN(c2ncccc2C(F)(F)F)CC1 measured_quantity="normalized growth" measured_number=0.977
molecule=Cc1ccc(OCC(=O)NN)c2c1CCC2 measured_quantity="normalized growth" measured_number=1.03
molecule=Clc1ccc(Cl)cc1 measured_quantity="normalized growth" measured_number=1.02

====

assay: chemical genetic growth profiling, strain panel (AID 1159580);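 further: tested at 20 µM; growth read once vehicle control cultures reached saturation at 30 °C; 1 = growth at the plate median or of vehicle wells; lower values mean less growth of the strain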; conditions: S. cerevisiae deletion strains, growth OD, locus YNL307C, strain MCK1, hits give low values
The whole screen tested about 5,500 compounds, of which about 2,000 (36%) were called active. About 18% were inconclusive and are not listed. This is one part of the list.
// boundary case: normalized growth equal to 1 maps to not fulfilled; strictly smaller maps to fulfilled

mol=O=c1c(-c2ccccc2)coc2cc(O)cc(O)c12 category=fulfilled
mol=COc1cc(O)c2c(=O)c(-c3ccc(O)cc3)coc2c1 category=fulfilled
mol=CC(=O)Oc1cc(OC(C)=O)c2c(=O)c(-c3ccccc3)coc2c1 category=fulfilled
mol=O=c1c(-c2ccc(O)cc2)coc2cc(O)cc(O)c12 category="not fulfilled"

====

experiment: chemical genetic growth profiling, strain panel (AID 1159580);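 further: tested at 20 µM; growth read once vehicle control cultures reached saturation at 30 °C; 1 = growth at the plate median or of vehicle wells; lower values mean less growth of the strain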; conditions: S. cerevisiae deletion strains, growth OD, locus YJL129C, strain trk1, hits give low values
Out of some 5,500 compounds screened, about 2,000 (36%) were called active. Roughly 18% stayed inconclusive and do not appear here. Some of the results follow.
// boundary case: normalized growth equal to 1 maps to not fulfilled; strictly smaller maps to fulfilled

compound="CC(C(=O)O)[C@H]1CCC2C3CC=C4C[C@@H](O)CC[C@]4(C)C3CC[C@@]21C (stereo not given in full)" category="not fulfilled"
compound=ClC(Cl)=C(c1ccc(Cl)cc1)c1ccc(Cl)cc1 category=fulfilled
compound="CC(=O)O[C@@H]1CC2C(C)(C)C(=O)CC[C@]2(C)C2CC[C@@]3(C)[C@H](c4ccoc4)OC(=O)C4OC43[C@@]21C (stereo not given in full)" category=fulfilled
compound=O=C(/C=C/c1ccccc1)c1ccc(O)cc1 category=fulfilled
compound="CC(=O)OCC(=O)[C@H]1CCC2C3CC=C4C[C@@H](O)CC[C@]4(C)C3CC[C@@]21C (stereo not given in full)" category=fulfilled
compound=Nc1nnc(-c2cccc(Cl)c2Cl)c(N)n1 category="not fulfilled"
compound=COc1cccc(-c2cc(=O)c3ccc(OC)cc3o2)c1 category=fulfilled

====

assay: chemical genetic growth profiling, strain panel (AID 1159580);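 further: tested at 20 µM; growth read once vehicle control cultures reached saturation at 30 °C; 1 = growth at the plate median or of vehicle wells; lower values mean less growth of the strain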; settings: S. cerevisiae deletion strains, growth OD, locus YCR088W, strain abp1, hits give low values
The campaign covered roughly 5,500 compounds. About 2,000 (36%) were called active. Inconclusive results (about 18%) are left out. Some of the results follow.
Measured Quantity: normalized growth

molecule=COc1ccc(-c2cc(=O)c3ccccc3o2)cc1 measured_number=0.926
molecule=COc1ccc(-c2cc(=O)c3cc(OC)ccc3o2)cc1 measured_number=0.94
molecule="CC(=O)CC(c1ccccc1)c1c(O)c2ccccc2oc1=O (stereo not drawn)" measured_number=1
molecule=COc1ccc(-c2cc(=O)c3c(OC(C)=O)cc(OC(C)=O)cc3o2)cc1 measured_number=0.996
molecule=Nc1ccc(C(=O)Oc2ccccc2)c(O)c1 measured_number=0.921
molecule="CC(=O)O[C@H]1C[C@H](O[C@H]2[C@@H](O)C[C@H](O[C@H]3[C@@H](O)C[C@H](O[C@H]4CC[C@@]5(C)C(CCC6C5C[C@@H](O)[C@]5(C)[C@@H](C7=CC(=O)OC7)CC[C@]65O)C4)O[C@@H]3C)O[C@@H]2C)O[C@H](C)[C@H]1O[C@@H]1O[C@H](CO)[C@@H](O)[C@H](O)[C@H]1O (stereo partly drawn)" measured_number=0.989
molecule="CC(C)(C)C(=O)C(Oc1ccc(Cl)cc1)n1cncn1 (stereo not drawn)" measured_number=0.25
molecule=CC(C)(Oc1ccc(Cl)cc1)C(=O)O measured_number=1.01
molecule=COc1ccc(-c2cc(=O)c3c(O)c(OC)c(OC)c(OC)c3o2)cc1 measured_number=0.996
molecule="C[C@@H]1CC[C@@]2(OC1)OC1C(O)C3C4CC[C@H]5C[C@H](O[C@@H]6O[C@H](CO)[C@H](O[C@@H]7O[C@H](CO)[C@@H](O)[C@H](O[C@@H]8OC[C@@H](O)[C@H](O)[C@H]8O)[C@H]7O[C@@H]7O[C@H](CO)[C@H](O)[C@H](O[C@@H]8O[C@H](CO)[C@@H](O)[C@H](O)[C@H]8O)[C@H]7O)[C@H](O)[C@H]6O)[C@H](O)C[C@]5(C)C4CC[C@]3(C)C1[C@@H]2C (stereo partly drawn)" measured_number=1.01
molecule=O=c1oc2ccccc2c(O)c1Cc1c(O)c2ccccc2oc1=O measured_number=1.02
molecule=CC(C)Oc1ccc2c(=O)cc(-c3ccccc3)oc2c1 measured_number=0.933
molecule=COc1c(O)cccc1O measured_number=1.02
molecule=CC(=O)Nc1cccc(O)c1 measured_number=1.02
molecule=O=C(O)c1cc(=O)c2ccccc2o1 measured_number=0.973
molecule=CC(=O)Oc1cc(-c2coc3cc(OC(C)=O)c(OC(C)=O)c(OC(C)=O)c3c2=O)cc(OC(C)=O)c1OC(C)=O measured_number=0.977
molecule=Nc1ccc(C(=O)O)c(O)c1 measured_number=0.997
molecule=O=c1c(-c2cc(O)c(O)c(O)c2)coc2cc(O)c(O)c(O)c12 measured_number=1.03
